Assay: PK Phase (Group 2): plasma concentrations and pharmacokinetics of Compound 18 and its metabolite Compound 4 after once daily ocular instillation of Compound 18 nanosuspension for 7 days
Assay type: in vivo, New Zealand white rabbits
Details: male, New Zealand white, rabbit, plasma, other: ocular instillation (eye drop), 0.821 mg/kg/day, 0.5 h; animal 207666; read-out: Day 7 Compound 18 Plasma Concentration
Assay Endpoint: concentration at 0.5 h

[in] What value of concentration at 0.5 h has been reported for the following compound? CCCc1nn(C)c2c(=O)[nH]c(-c3cc(S(=O)(=O)N4CC(CCCO[N+](=O)[O-])C4)ccc3OCC)nc12
[out] 0.163 ng/mL

---

Assay: TD Phase (Groups 1 and 3): plasma and ocular tissue concentrations and pharmacokinetics of Compound 18 and its metabolite Compound 4 after once daily ocular instillation of Compound 18 nanosuspension for 7 days
Format: in vivo, New Zealand white rabbits
Conditions: male, New Zealand white, rabbit, sclera/choroid, other: ocular instillation (eye drop), 0.798 mg/kg/day, TD Phase, Group 3, 2 h, Mean; read-out: Final Compound 18 Sclera/Choroid Conc.
Protocol: This example illustrates the procedures and results for the levels of Compound 18 and its metabolite Compound 4 in plasma and ocular tissues of normotensive rabbits following ocular instillation of Compound 18 once daily for 7 consecutive days. […] Plasma and tissue samples from treated animals (Groups 1-3) were analyzed for Compound 18 and its metabolite Compound 4 concentrations by LC-MS/MS. […] BA Assay: Quantitation Range 0.05 to 100 ng/mL for Compound 18, 0.15 to 100 ng/mL for Compound 4. […]
Assay Endpoint: concentration at 2 h (ng/g)
Give the number; ng/g is assumed, so skip it.

[in] What value of concentration at 2 h has been reported for the following compound? CCCc1nn(C)c2c(=O)[nH]c(-c3cc(S(=O)(=O)N4CC(CCCO[N+](=O)[O-])C4)ccc3OCC)nc12 [Compound 18]
[out] 246

---

Assay: PK Phase (Group 2): plasma concentrations and pharmacokinetics of Compound 18 and its metabolite Compound 4 after once daily ocular instillation of Compound 18 nanosuspension for 7 days
Format: in vivo, New Zealand white rabbits
Details: male, New Zealand white, rabbit, plasma, other: ocular instillation, 0.8 mg/kg/day, 1 h; animal 207666; read-out: Day 1 Compound 18 Plasma Concentration
Assay Endpoint: concentration at 1 h (ng/mL)
Give the number; ng/mL is assumed, so skip it.

[in] What value of concentration at 1 h has been reported for the following compound? CCCc1nn(C)c2c(=O)[nH]c(-c3cc(S(=O)(=O)N4CC(CCCO[N+](=O)[O-])C4)ccc3OCC)nc12
[out] 0.183

---

Assay: TD Phase (Groups 1 and 3): plasma and ocular tissue concentrations and pharmacokinetics of Compound 18 and its metabolite Compound 4 after once daily ocular instillation of Compound 18 nanosuspension for 7 days
Format: in vivo, New Zealand white rabbits
Conditions: male, New Zealand white, rabbit, topical or ocular; Optic Nerve; Day 7; Compound 18 0.8 mg/kg ocular instillation once daily; Groups 1 and 3
Assay Endpoint: Tmax (h)
Give the number; h is assumed, so skip it.

[in] What value of Tmax has been reported for the following compound? CCCc1nn(C)c2c(=O)[nH]c(-c3cc(S(=O)(=O)N4CC(CCCO)C4)ccc3OCC)nc12 [Compound 4]
[out] 1

---

Test: TD Phase (Groups 1 and 3): plasma and ocular tissue concentrations and pharmacokinetics of Compound 18 and its metabolite Compound 4 after once daily ocular instillation of Compound 18 nanosuspension for 7 days
Assay type: in vivo, New Zealand white rabbits
Settings: male, New Zealand white, rabbit, lens, topical, 2 mg/day, TD Phase, Group 3, 4 h, Mean; read-out: Final Compound 18 Lens Conc.
Assay Endpoint: concentration at 4 h (ng/g)
Give the number; ng/g is assumed, so skip it.

[in] What value of concentration at 4 h has been reported for the following compound? CCCc1nn(C)c2c(=O)[nH]c(-c3cc(S(=O)(=O)N4CC(CCCO[N+](=O)[O-])C4)ccc3OCC)nc12
[out] 0.128
